tested on: Myzus persicae (Green Peach Aphid); test: Activity against Myzus persicae on cabbage plants, feeding/residual contact activity (Example B5); format: in vivo; details: 144 h, infested cabbage plants, spray chamber, mortality 6 days after treatment
Record form. Attribute: pest or weed control at 200 ppm. Fill in for each entry.

Sure, the documented pest or weed control at 200 ppm for C#Cc1cc(C)cc(C)c1C1C(=O)N(OC2CCCO2)C2(CCN(OC)CC2)C1=O (stereo not drawn) [Compound P2.8] is ≥ 80%

Sure, the documented pest or weed control at 200 ppm for C=Cc1cc(C)cc(C)c1C1=C(O)C2(CCN(OC)CC2)N(C)C1=O [Compound P2.4] is ≥ 80%

Sure, the documented pest or weed control at 200 ppm for C#Cc1cc(C)cc(C)c1C1=C(OC(=O)OCC)C2(CCN(OC)CC2)NC1=O [Compound P1.7] is ≥ 80%

Sure, the documented pest or weed control at 200 ppm for C#Cc1ccc(C)cc1C1=C(OC(=O)OCC)C2(CCN(OC)CC2)N(OC)C1=O [Compound P1.11] is ≥ 80%

Sure, the documented pest or weed control at 200 ppm for CC#Cc1cc(C)c(C2=C(OC(=O)OCC)C3(CCN(OC)CC3)N(C)C2=O)c(C)c1 [Compound P1.14] is ≥ 80%

Sure, the documented pest or weed control at 200 ppm for C#Cc1cc(C)cc(C)c1C1=C(OC(=O)OCC)C2(CCN(OC)CC2)N(C)C1=O [Compound P1.8] is ≥ 80%

Sure, the documented pest or weed control at 200 ppm for C#Cc1cc(C)c(C2C(=O)NC3(CCN(OC)CC3)C2=O)c(C)c1 (stereo not drawn) [Compound P2.11] is ≥ 80%

Sure, the documented pest or weed control at 200 ppm for C=Cc1cc(C)cc(C)c1C1=C(O)C2(CCN(OC)CC2)N(OC2CCCO2)C1=O (stereo not drawn) [Compound P2.5] is ≥ 80%

Sure, the documented pest or weed control at 200 ppm for C#Cc1cc(C)c(C2=C(O)C3(CCN(OC)CC3)N(C)C2=O)c(C)c1 [Compound P2.12] is ≥ 80%

Sure, the documented pest or weed control at 200 ppm for C=Cc1cc(C)cc(C)c1C1=C(O)C2(CCN(OC)CC2)NC1=O [Compound P2.3] is ≥ 80%

Sure, the documented pest or weed control at 200 ppm for C#Cc1cc(C)c(C2=C(OC(=O)OCC)C3(CCN(OC)CC3)NC2=O)c(C)c1 [Compound P1.12] is ≥ 80%

Sure, the documented pest or weed control at 200 ppm for C#Cc1ccc(C)cc1C1=C(OC(=O)OCC)C2(CCN(OC)CC2)NC1=O [Compound P1.10] is ≥ 80%

Sure, the documented pest or weed control at 200 ppm for C#Cc1cc(C)cc(C)c1C1C(=O)NC2(CCN(OC)CC2)C1=O (stereo not drawn) [Compound P2.6] is ≥ 80%

Sure, the documented pest or weed control at 200 ppm for C#Cc1cc(C)c(C2=C(OC(=O)OCC)C3(CCN(OC)CC3)N(C)C2=O)c(C)c1 [Compound P1.13] is ≥ 80%

Sure, the documented pest or weed control at 200 ppm for C#Cc1ccc(C)cc1C1C(=O)N(OC)C2(CCN(OC)CC2)C1=O (stereo not drawn) [Compound P2.10] is ≥ 80%

Sure, the documented pest or weed control at 200 ppm for C=Cc1cc(C)cc(C)c1C1=C(OC(=O)OCC)C2(CCN(OC)CC2)N(C)C1=O [Compound P1.4] is ≥ 80%

Sure, the documented pest or weed control at 200 ppm for C#Cc1cc(C)cc(C)c1C1C(=O)N(C)C2(CCN(OC)CC2)C1=O (stereo not drawn) [Compound P2.7] is ≥ 80%

Sure, the documented pest or weed control at 200 ppm for C=Cc1cc(C)c(C2=C(OC(=O)OCC)C3(CCN(OC)CC3)N(C)C2=O)c(C)c1 [Compound P1.6] is ≥ 80%
